Test: Fecal recovery
Format: in vivo, Sprague Dawley rats
Conditions: male, Sprague-Dawley, faeces; rat, 1 mg/kg oral gavage, collection time 48 h
Returns label 1 if the recorded dose excreted is greater than or equal to 80%, and label 0 otherwise.

These recorded examples may help you get a feel for the data.
{"COMPOUND": "CN1Cc2c(Cl)cc(Cl)cc2[C@H](c2cccc(S(=O)(=O)NCCOCCOCCNC(=O)CCC(N)(CCC(=O)NCCOCCOCCNS(=O)(=O)c3cccc([C@@H]4CN(C)Cc5c(Cl)cc(Cl)cc54)c3)CCC(=O)NCCOCCOCCNS(=O)(=O)c3cccc([C@@H]4CN(C)Cc5c(Cl)cc(Cl)cc54)c3)c2)C1 [Example 2]", "CLASS_ASSIGNMENT": "label 1"}
{"COMPOUND": "CN1Cc2c(Cl)cc(Cl)cc2[C@H](c2cccc(S(=O)(=O)NCCOCCOCCNC(=O)NCCCN(CCCNC(=O)NCCOCCOCCNS(=O)(=O)c3cccc([C@@H]4CN(C)Cc5c(Cl)cc(Cl)cc54)c3)CCCNC(=O)NCCOCCOCCNS(=O)(=O)c3cccc([C@@H]4CN(C)Cc5c(Cl)cc(Cl)cc54)c3)c2)C1 [Example 43]", "CLASS_ASSIGNMENT": "label 0"}
{"COMPOUND": "CN1Cc2c(Cl)cc(Cl)cc2[C@H](c2cccc(S(=O)(=O)NCCOCCOCCNC(=O)CCC(CCC(=O)NCCOCCOCCNS(=O)(=O)c3cccc([C@@H]4CN(C)Cc5c(Cl)cc(Cl)cc54)c3)(CCC(=O)NCCOCCOCCNS(=O)(=O)c3cccc([C@@H]4CN(C)Cc5c(Cl)cc(Cl)cc54)c3)NC(=O)NC(CO)(CO)CO)c2)C1 [Example 11]", "CLASS_ASSIGNMENT": "label 0"}
{"COMPOUND": "CN1Cc2c(Cl)cc(Cl)cc2[C@H](c2cccc(S(=O)(=O)NCCOCCOCCNC(=O)CCC(CCC(=O)NCCOCCOCCNS(=O)(=O)c3cccc([C@@H]4CN(C)Cc5c(Cl)cc(Cl)cc54)c3)(CCC(=O)NCCOCCOCCNS(=O)(=O)c3cccc([C@@H]4CN(C)Cc5c(Cl)cc(Cl)cc54)c3)NC(=O)NCC(=O)O)c2)C1 [Example 7]", "CLASS_ASSIGNMENT": "label 1"}
{"COMPOUND": "CN1Cc2c(Cl)cc(Cl)cc2[C@H](c2cccc(S(=O)(=O)NCCOCCOCCNC(=O)CCC(CCC(=O)NCCOCCOCCNS(=O)(=O)c3cccc([C@@H]4CN(C)Cc5c(Cl)cc(Cl)cc54)c3)(CCC(=O)NCCOCCOCCNS(=O)(=O)c3cccc([C@@H]4CN(C)Cc5c(Cl)cc(Cl)cc54)c3)NC(=O)COCC(=O)O)c2)C1 [Example 6]", "CLASS_ASSIGNMENT": "label 0"}

Enquiry: Can CN1Cc2c(Cl)cc(Cl)cc2[C@H](c2cccc(S(=O)(=O)NCCOCCOCCNC(=O)NCCCC(CCCNC(=O)NCCOCCOCCNS(=O)(=O)c3cccc([C@@H]4CN(C)Cc5c(Cl)cc(Cl)cc54)c3)(CCCNC(=O)NCCOCCOCCNS(=O)(=O)c3cccc([C@@H]4CN(C)Cc5c(Cl)cc(Cl)cc54)c3)NC(=O)NC[C@H](O)[C@@H](O)[C@H](O)[C@H](O)CO)c2)C1 [Example 65] be said to have dose excreted at or above 80%?
Return: label 1

Enquiry: Hi, just wondering whether CN1Cc2c(Cl)cc(Cl)cc2[C@H](c2cccc(S(=O)(=O)NCCOCCOCCN(C)C(=O)NCCCN(CCCNC(=O)N(C)CCOCCOCCNS(=O)(=O)c3cccc([C@@H]4CN(C)Cc5c(Cl)cc(Cl)cc54)c3)CCCNC(=O)N(C)CCOCCOCCNS(=O)(=O)c3cccc([C@@H]4CN(C)Cc5c(Cl)cc(Cl)cc54)c3)c2)C1 [Example 55] shows dose excreted of 80% or higher.
Return: label 0

Enquiry: Is it the case that CN1Cc2c(Cl)cc(Cl)cc2[C@H](c2cccc(S(=O)(=O)NCCOCCOCCNC(=O)NCCC(N)(CCNC(=O)NCCOCCOCCNS(=O)(=O)c3cccc([C@@H]4CN(C)Cc5c(Cl)cc(Cl)cc54)c3)CCNC(=O)NCCOCCOCCNS(=O)(=O)c3cccc([C@@H]4CN(C)Cc5c(Cl)cc(Cl)cc54)c3)c2)C1 [Example 46] has dose excreted reaching or exceeding 80%?
Return: label 0

----------
Biological target: Rat NHE-3 (Rattus norvegicus)
Construct: expressed in transfected cells; host or cells: Opossum kidney (OK) cells (ATCC), transfected by electroporation
Sequence (P26433 29-831): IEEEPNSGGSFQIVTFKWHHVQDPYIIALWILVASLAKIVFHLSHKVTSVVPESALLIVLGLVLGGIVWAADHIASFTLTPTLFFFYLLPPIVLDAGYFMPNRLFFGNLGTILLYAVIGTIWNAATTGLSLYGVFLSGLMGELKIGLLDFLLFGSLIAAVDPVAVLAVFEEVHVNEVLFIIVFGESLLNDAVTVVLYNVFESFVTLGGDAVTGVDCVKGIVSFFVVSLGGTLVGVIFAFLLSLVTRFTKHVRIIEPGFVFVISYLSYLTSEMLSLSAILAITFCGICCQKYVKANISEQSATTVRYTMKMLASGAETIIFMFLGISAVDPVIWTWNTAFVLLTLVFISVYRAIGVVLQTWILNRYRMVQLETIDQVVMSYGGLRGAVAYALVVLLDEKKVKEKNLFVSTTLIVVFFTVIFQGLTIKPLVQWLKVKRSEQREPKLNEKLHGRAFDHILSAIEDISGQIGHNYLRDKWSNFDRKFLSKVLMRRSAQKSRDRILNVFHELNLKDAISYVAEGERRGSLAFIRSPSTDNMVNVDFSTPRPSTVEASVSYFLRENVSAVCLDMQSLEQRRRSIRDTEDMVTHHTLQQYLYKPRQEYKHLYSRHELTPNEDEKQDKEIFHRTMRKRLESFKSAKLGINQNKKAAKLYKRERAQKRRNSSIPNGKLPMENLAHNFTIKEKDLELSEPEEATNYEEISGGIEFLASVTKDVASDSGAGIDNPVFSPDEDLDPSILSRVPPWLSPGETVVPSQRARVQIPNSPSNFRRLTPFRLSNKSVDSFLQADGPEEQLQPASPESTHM
Assay: Cell-based assay of NHE-3 activity (persistent inhibition, after washout)
Settings: OK cells with rat NHE-3 gene, 60 min incubation, recovery initiated 40 min after compound washout
READOUT_KIND: Rat NHE3 pIC50 (persistent)

{"COMPOUND": "CN1Cc2c(Cl)cc(Cl)cc2[C@H](c2cccc(S(=O)(=O)NCCOCCOCCNC(=O)NCCN(CCNC(=O)NCCOCCOCCNS(=O)(=O)c3cccc([C@@H]4CN(C)Cc5c(Cl)cc(Cl)cc54)c3)C(=O)CCOCCOCCOCCOCCOCCC(=O)N(CCNC(=O)NCCOCCOCCNS(=O)(=O)c3cccc([C@@H]4CN(C)Cc5c(Cl)cc(Cl)cc54)c3)CCNC(=O)NCCOCCOCCNS(=O)(=O)c3cccc([C@@H]4CN(C)Cc5c(Cl)cc(Cl)cc54)c3)c2)C1", "RESULT": "C (C NHE3 pIC50 > 7)"}
{"COMPOUND": "CN1Cc2c(Cl)cc(Cl)cc2C(c2cccc(S(=O)(=O)NCCOCCOCCNC(=O)CCC(CCC(=O)NCCOCCOCCNS(=O)(=O)c3cccc(C4CN(C)Cc5c(Cl)cc(Cl)cc54)c3)(CCC(=O)NCCOCCOCCNS(=O)(=O)c3cccc(C4CN(C)Cc5c(Cl)cc(Cl)cc54)c3)NC(=O)N(C)CC(O)C(O)C(O)C(O)CO)c2)C1 (stereo not drawn)", "RESULT": "C (C NHE3 pIC50 > 7)"}

----------
Molecular target: human NHE-3 (Homo sapiens, UniProt P48764)
Construct: expressed in transfected cells; host or cells: Opossum kidney (OK) cells (ATCC), transfected by electroporation
Sequence (P48764 26-834): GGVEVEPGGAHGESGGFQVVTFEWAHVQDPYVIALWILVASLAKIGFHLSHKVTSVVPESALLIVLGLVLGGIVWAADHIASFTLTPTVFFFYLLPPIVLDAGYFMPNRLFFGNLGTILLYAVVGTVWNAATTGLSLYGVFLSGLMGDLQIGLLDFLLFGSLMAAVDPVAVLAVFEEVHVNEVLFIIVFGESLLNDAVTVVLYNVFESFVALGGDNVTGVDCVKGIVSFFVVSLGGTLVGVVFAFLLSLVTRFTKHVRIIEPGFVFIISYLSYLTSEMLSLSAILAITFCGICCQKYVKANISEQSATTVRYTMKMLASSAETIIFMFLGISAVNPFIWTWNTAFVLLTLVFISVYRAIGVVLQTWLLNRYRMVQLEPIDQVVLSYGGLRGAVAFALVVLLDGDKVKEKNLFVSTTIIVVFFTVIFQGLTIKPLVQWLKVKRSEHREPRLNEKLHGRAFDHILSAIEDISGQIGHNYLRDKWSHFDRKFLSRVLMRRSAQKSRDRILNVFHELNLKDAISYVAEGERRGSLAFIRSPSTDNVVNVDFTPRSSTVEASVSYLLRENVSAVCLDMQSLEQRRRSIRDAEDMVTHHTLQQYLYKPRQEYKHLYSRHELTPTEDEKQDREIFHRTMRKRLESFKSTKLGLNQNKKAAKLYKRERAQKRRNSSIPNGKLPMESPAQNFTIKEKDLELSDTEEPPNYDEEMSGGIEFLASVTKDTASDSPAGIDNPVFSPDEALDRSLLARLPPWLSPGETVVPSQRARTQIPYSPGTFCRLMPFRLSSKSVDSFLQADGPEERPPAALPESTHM
Experiment: Cell-based assay of NHE-3 activity (human NHE3 inhibition assay)
Details: OK cells with human NHE-3 gene, BCECF pH dye, 0-30 μM test compound
READOUT_KIND: Human NHE3 pIC50

// worked examples, Human NHE3 pIC50 included
{"SMILES_CODE": "CN1Cc2c(Cl)cc(Cl)cc2[C@H](c2cccc(S(=O)(=O)NCCOCCOCCOCCNC(=O)CN(CC(=O)NCCOCCOCCOCCNS(=O)(=O)c3cccc([C@@H]4CN(C)Cc5c(Cl)cc(Cl)cc54)c3)[C@@H]3CCCC[C@H]3N(CC(=O)NCCOCCOCCOCCNS(=O)(=O)c3cccc([C@@H]4CN(C)Cc5c(Cl)cc(Cl)cc54)c3)CC(=O)NCCOCCOCCOCCNS(=O)(=O)c3cccc([C@@H]4CN(C)Cc5c(Cl)cc(Cl)cc54)c3)c2)C1", "Human NHE3 pIC50": "C (C NHE3 pIC50 > 7)"}
{"SMILES_CODE": "CN1Cc2c(Cl)cc(Cl)cc2[C@H](c2cccc(S(=O)(=O)NCCOCCOCCN(C)C(=O)CCC(CCC(=O)N(C)CCOCCOCCNS(=O)(=O)c3cccc([C@@H]4CN(C)Cc5c(Cl)cc(Cl)cc54)c3)(CCC(=O)N(C)CCOCCOCCNS(=O)(=O)c3cccc([C@@H]4CN(C)Cc5c(Cl)cc(Cl)cc54)c3)N(C)C)c2)C1", "Human NHE3 pIC50": "C (C NHE3 pIC50 > 7)"}
{"SMILES_CODE": "CN1Cc2c(Cl)cc(Cl)cc2[C@H](c2cccc(S(=O)(=O)NCCOCCOCCNC(=O)NCCC[N+](C)(CCCNC(=O)NCCOCCOCCNS(=O)(=O)c3cccc([C@@H]4CN(C)Cc5c(Cl)cc(Cl)cc54)c3)CCCNC(=O)NCCOCCOCCNS(=O)(=O)c3cccc([C@@H]4CN(C)Cc5c(Cl)cc(Cl)cc54)c3)c2)C1", "Human NHE3 pIC50": "C (C NHE3 pIC50 > 7)"}
{"SMILES_CODE": "CN1Cc2c(Cl)cc(Cl)cc2[C@H](c2cccc(S(=O)(=O)NCCOCCOCCNC(=O)NCCC(CCNC(=O)NCCOCCOCCNS(=O)(=O)c3cccc([C@@H]4CN(C)Cc5c(Cl)cc(Cl)cc54)c3)(CCNC(=O)NCCOCCOCCNS(=O)(=O)c3cccc([C@@H]4CN(C)Cc5c(Cl)cc(Cl)cc54)c3)NC(=O)COCC(=O)O)c2)C1", "Human NHE3 pIC50": "C (C NHE3 pIC50 > 7)"}
{"SMILES_CODE": "CN(C)CC(=O)NC(CCC(=O)N(C)CCOCCOCCNS(=O)(=O)c1cccc([C@@H]2CN(C)Cc3c(Cl)cc(Cl)cc32)c1)(CCC(=O)N(C)CCOCCOCCNS(=O)(=O)c1cccc([C@@H]2CN(C)Cc3c(Cl)cc(Cl)cc32)c1)CCC(=O)N(C)CCOCCOCCNS(=O)(=O)c1cccc([C@@H]2CN(C)Cc3c(Cl)cc(Cl)cc32)c1", "Human NHE3 pIC50": "C (C NHE3 pIC50 > 7)"}

Enquiry: # input compound: CN1Cc2c(Cl)cc(Cl)cc2[C@H](c2cccc(S(=O)(=O)NCCOCCOCCN(C)C(=O)CCC(N)(CCC(=O)N(C)CCOCCOCCNS(=O)(=O)c3cccc([C@@H]4CN(C)Cc5c(Cl)cc(Cl)cc54)c3)CCC(=O)N(C)CCOCCOCCNS(=O)(=O)c3cccc([C@@H]4CN(C)Cc5c(Cl)cc(Cl)cc54)c3)c2)C1 ; wanted: its Human NHE3 pIC50
Return: C (C NHE3 pIC50 > 7)
